experiment: NCI Yeast Anticancer Drug Screen. Data for the mlh1 rad18 strain (AID 175); conditions: S. cerevisiae mlh1 rad18 strain growth inhibition; at 50.0 µM
This is part of a sample that, as a whole, favours compounds with a hit. Of some 79,000 tested, about 15% had one in any assay. The source made the active and inactive calls. Cut-off read from the data, not from the text of the source: active = growth inhibition above about 70%; inactive = the rest.
// allowed return values: active, inactive

O=C1c2ccccc2C(=O)[C@@]23O[C@@]12C1(Oc2cccc4cccc(c24)O1)[C@@H]1O[C@@H]1[C@@H]3O ... active
CC(=O)OC1CCC2(C)C(C1)C(OC(C)=O)CC1C3CCC(c4cccc(=O)o4)C3(C)CCC12 (stereo not drawn) ... active
CCOC(=O)N1CCN(C(=S)N/N=C(\C)c2ncccn2)CC1 ... active
C=CCOCC(C)OC(=O)C(C)C (stereo not drawn) ... inactive
CCCCN(CCCC)CCC(=O)c1ccc2c(ccc3ccccc32)c1 ... active
c1ccc2c(c1)ccc1c[n+]3c4ccccc4ccc3n12 ... active
CCCCOC(=O)C#CC(=O)OCCCC ... active
CC(C)(C[NH-])C[NH-].[Cl][Pt+2]([Cl])([Cl])[Cl] ... inactive

For this molecule, state the assay outcome: CC(C(O)Cc1ccccc1)N(C)N=Nc1ccc([N+](=O)[O-])cc1 (stereo not drawn) active

// outcome(item) with item = CC1=NC(=Cc2cccc(Cl)c2)C(=O)N1n1c(-c2ccccc2)nc2ccccc2c1=O active

How was Cc1noc(NS(=O)(=O)c2ccc(NCc3c4ccccc4nc4cc(Cl)ccc34)cc2)c1C classified in this test? active

Lab log entry: C=CCc1cccc(/C=N\N=C(/N)NO)c1O — outcome as called in the assay? active

Fill in: this test's call for CC(C)(C)c1cc2c(c(C(C)(C)C)c1O)CC(=O)O2 is ___ active

What did the test return for CC(=O)Oc1cccc2c(OC(C)=O)cccc12 ? inactive

Which outcome did this test record for the molecule COc1ccc(OC)c2c(=S)c3ccccc3[nH]c12 ? active

GET /call?item= O=Cc1ccc2ccc3ccccc3c2c1 returns the recorded outcome of this test. active

Name the outcome recorded for O=P(N=P(c1ccccc1)(c1ccccc1)c1ccccc1)(c1ccccc1)c1ccccc1 in the assay. active

What classification did COc1ccc(/C=C2/C(=O)ON=C2C)cc1OC end up with in this test? active

GET /call?item= COc1ccc(N(C)Sc2ccccc2)cc1 returns the recorded outcome of this test. active

What is the recorded call for this molecule in the test? O=C(CBr)c1cc(-c2ccc(Cl)cc2)nc2ccccc12 active

Recorded call for Cc1ccccc1NC(=S)N/N=C(/c1ccccc1)c1ccccn1 ? active

Assay outcome for C/C=C/C=C/C(=O)Nc1ccc([N+](=O)[O-])cc1 : what was it? inactive

Which result was noted for this molecule in the test: CS/C(=N\N=C(/C)c1ccccn1)N1CCN(c2ccccn2)CC1 active

###

test: NCI Yeast Anticancer Drug Screen. Data for the cln2 rad14 strain (AID 165);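 note: 0% = growth equal to vehicle treated cultures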; conditions: S. cerevisiae cln2 rad14 strain, at 5.0 µM (retest, dose inferred, filed as 0.5)
This is part of a sample that, as a whole, favours compounds with a hit. Of some 79,000 tested, about 15% had one in any assay. The source made the active and inactive calls. Rule as the data show it: active = growth inhibition above about 70%; inactive = the rest.
Form entry, call: pick from 1 = active, -1 = inactive

COC(=O)c1ccccc1C=C(c1ccc([N+](=O)[O-])cc1)c1ccc([N+](=O)[O-])cc1 ... -1
O=C(c1ccc(Cl)cc1)C1OC12C(=O)Nc1c(Cl)cc(Cl)cc12 (stereo not drawn) ... -1
Cc1cc(N)c2cc(OCCOc3ccc4nc(C)cc(N)c4c3)ccc2n1 ... 1
O=C1NN(C2=NNC3(C(=O)N2)c2ccccc2-c2ccccc23)C(c2ccccc2)=N/C1=C/c1ccc(Cl)cc1 ... -1
S=c1sc2nc(Cl)nc(Cl)c2s1 ... 1

Here is the next item to consider.
Assay result, entry CC1=CC(=O)C(O)=C/C1=C\C=C\c1ccccc1 — outcome? -1
